Data origin: the NIST ThermoML archive (doi:10.1016/j.fluid.2014.01.019)

details: 313.15 K; 101.33 kPa; Liquid; Vibrating tube method
attribute.measured: mass density (kg/m3)
State the answer as a number, implicitly in kg/m3.

Cc1ccccc1Cl : 1064.01
Cc1ccc(Cl)cc1 : 1049.29
Cc1cccc([N+](=O)[O-])c1 : 1137.98

mass density reported for this compound Cc1cccc(Cl)c1 : 1053.49

Record OCc1ccccc1 , field mass density: 1029.91

Kindly note the recorded mass density for Cc1ccccc1[N+](=O)[O-] , which is 1144.91

* * *

settings: 298.15 K; 101.33 kPa; Liquid; Vibrating tube method
attribute.measured: mass density (kg/m3)
Respond with the bare value in kg/m3.

Completed entries (count: 5):
Cc1ccccc1[N+](=O)[O-] : 1159.6
Cc1ccc(Cl)cc1 : 1064.93
OCc1ccccc1 : 1041.44
Cc1cccc(Cl)c1 : 1067.25
Cc1cccc([N+](=O)[O-])c1 : 1152.23

Given item Cc1ccccc1Cl , the value recorded as its mass density is 1076.47
